Target: Aldehyde dehydrogenase 1A1 (Homo sapiens) (UniProt P00352)
Assay: qHTS for Inhibitors of the Aldehyde Dehydrogenase Family (ALDH1A1) Confirmatory screens (AID 2061316); note: nearly all actives have a fitted effect of over 65% in size
Details: ALDH inhibition qHTS; series mostly up to 47.3 µM
Records with an inconclusive call do not appear. Calls of active or inactive are those of the source. Calls come from the whole dose curve; as a rule, active = well fitted inhibition curve with a large enough effect; inconclusive = small, poorly fitted or top-dose-only effect; inactive = no such curve, though single readings can be large or run the other way. Residues, ends and D or L forms follow the SMILES beside them. *: point of attachment. Cbz = O=C(OCc1ccccc1)*; CH2Cl = ClC*
Respond using exactly one of the listed classes: active, inactive

Known results for compounds:
compound=CC(=O)c1c(O)cc(O[C@@H]2O[C@H](CO)[C@@H](O)[C@H](O)[C@H]2O)cc1O category_label=inactive
compound="COc1ccc(C2Nc3ccccc3C(=O)N2Cc2ccccc2)cc1COc1cccc(C(F)(F)F)c1 (stereo not drawn)" category_label=inactive
compound=COc1ccnc(CCc2nc3ncccc3[nH]2)c1 category_label=inactive
compound=CC1=NN(c2ccccc2)C(=O)C1 category_label=active
compound=CC(C)(C)OC(=O)N1CCN(c2ccc(NCc3coc(-c4ccc(C#N)cc4)c3)cc2)CC1 category_label=active
compound=CCc1nnc(-c2cnn(C)c2N)n1CCCn1ccnc1 category_label=inactive
compound=OC[C@@]1(O)CO[C@@H](OC[C@H]2O[C@@H](Oc3ccccc3)[C@H](O)[C@@H](O)[C@@H]2O)[C@@H]1O category_label=inactive
compound=CCOc1cc(CNc2ccc(C(=O)O)cc2)ccc1OCc1ccccc1 category_label=active
compound="N=c1c2c(ncn1-c1ccccc1)Oc1ccc3ccccc3c1C2c1ccc2c(c1)CCO2 (stereo not drawn)" category_label=active
compound=CC[C@@H](Nc1c(Nc2cccc(C(=O)N(C)C)c2O)c(=O)c1=O)c1cc(C(C)C)co1 category_label=inactive

Query: Per the assay record, what outcome was assigned to CN(C)c1ccc(NC(=O)NS(=O)(=O)c2ccc(Cl)cc2)cc1 ?
Response: active

Query: Recorded test call requested for CC(C)C[C@H](NC(=O)CNC(=O)OCc1ccccc1)C(=O)N[C@@H](Cc1ccccc1)C(=O)CCl (Cbz-Gly-Leu-Phe-CH2Cl)
Response: inactive

Query: Short answer needed: outcome of this test for CN1CCN(C(=O)CN[C@@H]2C[C@H]2c2ccc(OCc3ccccc3)cc2)CC1 ?
Response: active

====

Assay: qHTS for Inhibitors of the Aldehyde Dehydrogenase Family (ALDH1A2, ALDH1A3, ALDH2, ALDH3A1) (AID 2061307); note: nearly all actives have a fitted effect of over 50% in size
Conditions: ALDH inhibition qHTS; series mostly up to 50.3 µM
Results filed as inconclusive are left out. Active and inactive are the calls of the source. The call rests on the fitted dose curve; in most records, active means well fitted inhibition curve with a large enough effect; inconclusive means small, poorly fitted or top-dose-only effect; inactive means no such curve, though single readings can be large or run the other way.
Choose one outcome from this list and give only that: 1 for active, -1 for inactive

compound=COc1ccc(-c2cncc(NC(=O)c3cccs3)c2)cc1OC category_label=-1

Query: I'd appreciate the recorded outcome for CCOC(=O)c1cnc2c(cnn2CC)c1NN=C(C)C from this test.
Response: -1

Query: Record request — test call for CC1(C)[C@H](C(=O)O)N2C(=O)C[C@H]2S1(=O)=O
Response: -1

Query: Dear colleague, could you share the recorded outcome for CC1(C)SCCN(S(=O)(=O)c2ccc(Oc3ccncc3)cc2)[C@H]1C(=O)NO when you have a moment?
Response: -1

Query: Check the results log: what was the call for CCC(NC(C)C)C(O)c1ccc(O)c(O)c1 (centres undefined) ?
Response: -1

Query: GET /call?item= N=c1c2c(ncn1-c1ccccc1)Oc1ccc3ccccc3c1C2c1ccc2c(c1)CCO2 (centres undefined) returns the recorded outcome of this test.
Response: 1

Ref: PubChem BioAssay (NCATS)
